# Tested on: Escherichia coli
# assay_overview: Antimicrobial activity against Escherichia coli TOP10 harboring pSmQnr1 carrying Smqnr gene by Etest
# Format: functional
observed_property: MIC (µg/mL)
Enter your answer as a number in µg/mL; do not include the unit.

>  <compound>
CCn1cc(C(=O)O)c(=O)c2ccc(C)nc21 [NALIDIXIC ACID]

>  <recorded_number>
3

$$$$
>  <compound>
COc1c(N2CCNC(C)C2)c(F)cc2c(=O)c(C(=O)O)cn(C3CC3)c12 (stereo not drawn) [GATIFLOXACIN]

>  <recorded_number>
0.008

$$$$

Now, please, on to the next compound.
For the compound shown here, CCn1cc(C(=O)O)c(=O)c2cc(F)c(N3CCNCC3)cc21 [NORFLOXACIN] , give the reported MIC.
0.064

====

# Tested on: Escherichia coli
# assay_overview: Antimicrobial activity against Escherichia coli TOP10 harboring pSmQnr1 carrying Smqnr gene by Etest
# Format: functional
observed_property: MIC (µg/mL)
Enter your answer as a number in µg/mL; do not include the unit.

Guide cases for MIC, answers given:
>  <chem_smiles>
C[C@@H]1CN(c2c(F)c(N)c3c(=O)c(C(=O)O)cn(C4CC4)c3c2F)C[C@H](C)N1

>  <subject_of_test>
Escherichia coli

>  <MIC / µg/mL>
0.004

$$$$
>  <chem_smiles>
C[C@H]1COc2c(N3CCN(C)CC3)c(F)cc3c(=O)c(C(=O)O)cn1c23.C[C@H]1COc2c(N3CCN(C)CC3)c(F)cc3c(=O)c(C(=O)O)cn1c23.O

>  <subject_of_test>
Escherichia coli

>  <MIC / µg/mL>
0.023

$$$$

Now, please, on to the next molecule.
For the molecule shown here, "COc1c(N2C[C@@H]3CCCN[C@@H]3C2)c(F)cc2c(=O)c(C(=O)O)cn(C3CC3)c12" , give the reported MIC.
0.012

====

# Test system: Escherichia coli
# assay_overview: Antimicrobial activity against Escherichia coli TOP10 harboring pSmQnr6 carrying Smqnr gene by Etest
# Type: functional
observed_property: MIC

Guide cases for MIC, answers given:
>  <compound>
C[C@@H]1CN(c2c(F)c(N)c3c(=O)c(C(=O)O)cn(C4CC4)c3c2F)C[C@H](C)N1 [SPARFLOXACIN]

>  <MIC>
0.125 µg/mL

$$$$
>  <compound>
CCn1cc(C(=O)O)c(=O)c2ccc(C)nc21 [NALIDIXIC ACID]

>  <MIC>
2 µg/mL

$$$$
>  <compound>
CCn1cc(C(=O)O)c(=O)c2cc(F)c(N3CCNCC3)cc21 [NORFLOXACIN]

>  <MIC>
0.064 µg/mL

$$$$
>  <compound>
C[C@H]1COc2c(N3CCN(C)CC3)c(F)cc3c(=O)c(C(=O)O)cn1c23.C[C@H]1COc2c(N3CCN(C)CC3)c(F)cc3c(=O)c(C(=O)O)cn1c23.O [LEVOFLOXACIN]

>  <MIC>
0.023 µg/mL

$$$$
>  <compound>
COc1c(N2C[C@@H]3CCCN[C@@H]3C2)c(F)cc2c(=O)c(C(=O)O)cn(C3CC3)c12 [MOXIFLOXACIN]

>  <MIC>
0.047 µg/mL

$$$$

Now, please, on to the next compound.
For the compound shown here, COc1c(N2CCNC(C)C2)c(F)cc2c(=O)c(C(=O)O)cn(C3CC3)c12 (stereo unspecified) [GATIFLOXACIN] , give the reported MIC.
0.064 µg/mL
